quantity: Kd (µM)
Numeric answer only, unit µM assumed.

Prompt line: State Kd on NaCT (Homo sapiens, UniProt Q86YT5). Entry: O=C(O)CC(O)(CC(=O)O)C(=O)O [citrate]
Sequence (Q86YT5 whole entry): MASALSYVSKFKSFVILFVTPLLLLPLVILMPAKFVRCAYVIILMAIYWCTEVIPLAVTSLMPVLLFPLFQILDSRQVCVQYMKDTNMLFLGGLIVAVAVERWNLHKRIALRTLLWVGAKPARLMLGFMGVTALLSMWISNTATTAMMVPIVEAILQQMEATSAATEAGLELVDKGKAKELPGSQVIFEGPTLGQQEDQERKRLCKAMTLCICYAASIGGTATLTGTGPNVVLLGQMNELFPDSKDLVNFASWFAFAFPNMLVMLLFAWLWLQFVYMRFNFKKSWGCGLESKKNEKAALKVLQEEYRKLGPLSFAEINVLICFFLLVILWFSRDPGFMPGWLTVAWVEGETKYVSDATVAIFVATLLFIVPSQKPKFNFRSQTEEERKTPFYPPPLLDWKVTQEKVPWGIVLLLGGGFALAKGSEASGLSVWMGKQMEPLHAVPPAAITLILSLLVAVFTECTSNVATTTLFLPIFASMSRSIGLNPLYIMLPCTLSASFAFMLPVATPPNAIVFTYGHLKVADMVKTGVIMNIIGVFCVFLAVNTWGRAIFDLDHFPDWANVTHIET
Response line: 148
